Cited source: patent US12377176B2

tested on: LNCaP tumor-bearing CB-17 SCID mice; conditions: male, mouse, in vivo, 1 h
Below is a list of entries, each paired with its recorded Biodistribution intestine value.

COMPOUND	Biodistribution intestine, % ID/g
CC(C)(C)[Si](F)(c1ccc(C(=O)NC[C@H](NC(=O)CC[C@H](C(=O)O)N2CCN(CC(=O)O)CCN(CC(=O)O)CCN(CC(=O)O)CC2)C(=O)N[C@H](CCCCNC(=O)CCC(=O)NCCC[C@@H](NC(=O)CC[C@H](NC(=O)N[C@@H](CCC(=O)O)C(=O)O)C(=O)O)C(=O)O)C(=O)O)cc1)C(C)(C)C [rhPSMA7.2, [^19F][^natGa]L-Dap-R-DOTAGA-rhPSMA7, metal not drawn]	0.18
CC(C)(C)[Si](F)(c1ccc(C(=O)NC[C@H](NC(=O)CC[C@@H](C(=O)O)N2CCN(CC(=O)O)CCN(CC(=O)O)CCN(CC(=O)O)CC2)C(=O)N[C@H](CCCCNC(=O)CCC(=O)NCCC[C@@H](NC(=O)CC[C@H](NC(=O)N[C@@H](CCC(=O)O)C(=O)O)C(=O)O)C(=O)O)C(=O)O)cc1)C(C)(C)C [rhPSMA7.4, [^19F][^natGa]L-Dap-S-DOTAGA-rhPSMA7, metal not drawn]	0.37
CC(C)(C)[Si](F)(c1ccc(C(=O)NC[C@@H](NC(=O)CC[C@H](C(=O)O)N2CCN(CC(=O)O)CCN(CC(=O)O)CCN(CC(=O)O)CC2)C(=O)N[C@H](CCCCNC(=O)CCC(=O)NCCC[C@@H](NC(=O)CC[C@H](NC(=O)N[C@@H](CCC(=O)O)C(=O)O)C(=O)O)C(=O)O)C(=O)O)cc1)C(C)(C)C [rhPSMA7.1, [^19F][^natGa]D-Dap-R-DOTAGA-rhPSMA7, metal not drawn]	0.30
CC(C)(C)[Si](F)(c1ccc(C(=O)NC[C@@H](NC(=O)CC[C@@H](C(=O)O)N2CCN(CC(=O)O)CCN(CC(=O)O)CCN(CC(=O)O)CC2)C(=O)N[C@H](CCCCNC(=O)CCC(=O)NCCC[C@@H](NC(=O)CC[C@H](NC(=O)N[C@@H](CCC(=O)O)C(=O)O)C(=O)O)C(=O)O)C(=O)O)cc1)C(C)(C)C [rhPSMA7.3, [^19F][^natGa]D-Dap-S-DOTAGA-rhPSMA7, metal not drawn]	0.35
